This collection of values is drawn from ChEMBL document CHEMBL1157723.

Task for the reader: assign each of the following molecules its reported Activity.
Test system: MDCK
Test: Cytotoxicity against MDCK cells after 48 hrs by MTT assay
Assay type: cell-based, Canis lupus familiaris
Conditions: dog

[ask] Any idea what Activity was measured for O=C(O)Cc1nnn(C23CC4CC(CC(C4)C2)C3)n1 ?
[reply] > 500 µg/mL

[ask] Now try CCOC(=O)Cc1nnn(C23CC4CC(CC(C4)C2)C3)n1 .
[reply] > 1000 µg/mL

[ask] Likewise for CCCCOC(=O)Cc1nnn(C23CC4CC(CC(C4)C2)C3)n1 ?
[reply] < 1 µg/mL

[ask] And the next one, O=c1[nH]nnn1-c1ccccc1 ?
[reply] > 1000 µg/mL

[ask] Here is the next molecule: OC12CC3CC(C1)CC(N=C=S)(C3)C2
[reply] > 500 µg/mL
